Hey, just so you know, these numbers are from PubChem BioAssay (NCI).

assay: NCI Yeast Anticancer Drug Screen. Data for the sgs1 mgt1 strain (AID 161);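 further: 0% = growth of cultures given vehicle only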; conditions: S. cerevisiae sgs1 mgt1 strain, at 50.0 µM, active compounds read high
The panel holds about 79,000 compounds, 15% with a hit somewhere; the sample as a whole holds those more often.
Lab note: anything with growth inhibition at or over 10% counts as 1; the rest go in -1.

Known results for molecules:
molecule="O=CNC(Cc1cnc[nH]1)C(=O)O (stereo unspecified)" label=-1
molecule=c1ccc(C2=NC(c3ccccc3)(c3ccccc3)N=C2c2ccccc2)cc1 label=-1
molecule=COc1ccc(/C=C/C(=O)c2cc(C(=O)O)c(OC)cc2OC)cc1OC label=1
molecule=CC(=O)NNc1nc(C)c(C(=O)NNC(=O)C(=O)Nc2ccc(Cl)cc2)s1 label=1
molecule="CSCCC(NCc1c(O)ccc2c(C)cc(=O)oc12)C(=O)O (stereo unspecified)" label=1

From here, focus on the item given below.
Lookup: Form field: growth inhibition at least 10%? Entry: Clc1ccc2cn[nH]c2c1
Found: -1
